Provenance of the data: ChEMBL document CHEMBL4513146

Recorded Inhibition, one value per entry.
Test system: Klebsiella pneumoniae
Settings: Concentration 32 ug.mL-1;; ASSAY_TEST Inhibition of Bacterial Growth; detection method Absorption (OD600); MEDIA CAMHB; plate type 384well; NBS; CORNING #3640; time 18 hr
Description: Antibacterial activity against Klebsiella pneumoniae MDR ATCC 70063 (CO-ADD:GN_003); MIC in CAMBH media using NBS plates, by OD(600)
Results with a measured potency or affinity are listed apart.
Report as a plain number; the unit % is understood.

Check out these entries, answers already filled in.
Smiles entry | System under test | Inhibition (%)
CCOc1ccc(-n2ccn3c(SCC(=O)NCc4ccccc4Cl)nnc3c2=O)cc1 | Klebsiella pneumoniae | 10.62
CC(=O)c1cccc(NC(=O)CSc2nnc3ccc(C(=O)Nc4cccc(F)c4)cn23)c1 | Klebsiella pneumoniae | 7.28

INPUT: Reported Inhibition for Cc1ccc(-c2cc3c4nnc(CCC(=O)NCc5ccc(F)c(Cl)c5)n4ccn3n2)cc1C : what is it?
OUTPUT: 10.99
